system: WI-38 cells; details: WI-38 cells, no H2O2 stress, 10 uM, normalized ATP measurement
Please assign no whenever No H2O2 stress treatment, at 10 uM (fold change) is at or above 1 fold change, and yes whenever it is below.

compound="[O-][n+]1onc2c3nsnc3c(Br)cc21 [O17]" assigned_class=no
compound="O=C(Nc1cc(C(F)(F)F)ccc1Cl)c1ccc([N+](=O)[O-])o1 [Gr-1B]" assigned_class=yes
compound="Cc1cc(N)n(-c2ccccc2C(=O)O)n1 [Gr-6A]" assigned_class=no
compound="Oc1ncnc2sc3c(c12)CCC3 [O14]" assigned_class=no
compound="CCc1ccccc1NC(=O)c1ccc([N+](=O)[O-])o1 [Gr-1C]" assigned_class=yes
compound="CC1C(=O)C(C)C(c2cc(Cl)ccc2O)NC1c1cc(Cl)ccc1O (centres unmarked) [O6]" assigned_class=no
compound="COC(=O)CCc1sc2c(c1[N+](=O)[O-])NC(=O)CCC2 [O20]" assigned_class=no
compound="COc1ccc(C(=O)/C=C/c2ccc(F)cc2)c(OC)c1 [Gr-4A]" assigned_class=no
compound="CNC(=O)/C(C#N)=C/c1c(Oc2ccc(C(C)(C)C)cc2)nc2ccccn2c1=O [Gr-5D]" assigned_class=no
compound="O=C(NCc1cccnc1)/C(=C\\c1cccc(Oc2ccccc2)c1)S(=O)(=O)c1ccccc1 [Gr-7A]" assigned_class=yes

-- ask Please indicate whether the reported No H2O2 stress treatment, at 10 uM (fold change) of O=C(c1ccc([N+](=O)[O-])o1)N1CCc2ccccc21 [O13] is strictly below 1 fold change.
-- reply no

-- ask Please indicate whether the reported No H2O2 stress treatment, at 10 uM (fold change) of CCc1ccc(Oc2nc3ccccn3c(=O)c2/C=C(\C#N)C(=O)NC2CCCCC2)cc1 [Gr-5A] is strictly below 1 fold change.
-- reply no

-- ask Please indicate whether the reported No H2O2 stress treatment, at 10 uM (fold change) of COc1cccc(/C=C2\CN(C)C/C(=C\c3cccc(OC)c3OC)C2=O)c1OC [O23] is strictly below 1 fold change.
-- reply yes

-- ask Please indicate whether the reported No H2O2 stress treatment, at 10 uM (fold change) of COc1ccc(/C=C2\SC(=N)N(c3nccs3)C2=O)cc1 [O21] is strictly below 1 fold change.
-- reply yes

-- ask Please indicate whether the reported No H2O2 stress treatment, at 10 uM (fold change) of CC(C)(C)c1ccc(OCC(=O)Nc2ccc3c4c(cccc24)C(=O)NC3=O)cc1 [O22] is strictly below 1 fold change.
-- reply yes

-- ask Please indicate whether the reported No H2O2 stress treatment, at 10 uM (fold change) of O=C(Nc1nc(C23CC4CC(CC(C4)C2)C3)cs1)C(c1ccccc1)c1ccccc1 [O10] is strictly below 1 fold change.
-- reply no

-- ask Please indicate whether the reported No H2O2 stress treatment, at 10 uM (fold change) of COc1ccc(C(=O)/C=C/c2cccc(Cl)c2)c(OC)c1 [Gr-4C] is strictly below 1 fold change.
-- reply no

-- ask Please indicate whether the reported No H2O2 stress treatment, at 10 uM (fold change) of O=C(NCc1cccnc1)/C(=C\c1ccc(Br)cc1)S(=O)(=O)c1ccccc1 [Gr-7B] is strictly below 1 fold change.
-- reply yes

----------
tested on: WI-38 cells; assay: CdCl2 (cadmium) resistance assay; format: cell-based, human; settings: summary score
measured.parameter: A = Cadmium resistant
Number, no unit, nothing else.

molecule=Cc1ccc(S(=O)(=O)Nc2cccc3cccnc23)cc1 measured_parameter="A = Cadmium resistant" endpoint_value=0
molecule=COc1cc2c(no[n+]2[O-])n2nnnc12 measured_parameter="A = Cadmium resistant" endpoint_value=1

For O=C(Nc1ccc(Cl)c(Cl)c1)c1ccc([N+](=O)[O-])o1 the molecule record lists A = Cadmium resistant as 1

For NS(=O)(=O)c1ccc(NC(=O)c2ccc([N+](=O)[O-])o2)cc1 the molecule record lists A = Cadmium resistant as 1
